Hello, the source for this data is patent US20260207767A1, in case you need it.

Target: T1, cynoPD-1 His (AcroBiosystems PD1-C5223) (cynomolgus monkey, UniProt B0LAJ3 25-170)
T1 construct: also called cPD-1; cynomolgus PD-1 His-tagged
T1 sequence (B0LAJ3 entry or part of it limits assumed): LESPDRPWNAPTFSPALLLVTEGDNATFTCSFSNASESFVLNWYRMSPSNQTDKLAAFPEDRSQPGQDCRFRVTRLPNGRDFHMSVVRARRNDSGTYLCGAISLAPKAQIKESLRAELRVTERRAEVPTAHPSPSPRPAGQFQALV
Assay: SPR, Ab captured, PD-1 analyte
Method: Anti-human Fc IgG (Jackson) was immobilized on amine reactive CM5 chips (GE Healthcare) using 1×HBS-EP+ running buffer (GE Healthcare). The test antibodies were captured at flow rate 10 μl/min with 30 s contact time. […] Regeneration was carried out with 10 mM Glycine-HCl, pH 1.5 at flow rate 10 μL/min. […]
recorded-metric: Kd
# include the unit after the value

These solved cases illustrate the format of a correct answer.
1. z5-XVT458 (antibody, human IgG1, kappa, V domains shown, hIgG1; numbering as for z1; also called GH + V067A + T073K) VH: QVQLVQSGAEVKKPGASVKVSCKASGYTFTNFYIHWVRQAPGQGLEWMGSIYPNYGDTAYNQKFKDRATMTTDKSTSTAYMELRSLRSDDTAVYYCARGYSYAMDYWGQGTTVTVSS VL: DIQMTQSPSSVSASVGDRVTITCSASQGISGDLNWYQQKPGKAPKLLIYHTSSLHSGVPSRFSGSGSGTDFTLTISSLQPEDFATYYCQYYSKDLLTFGGGTKLEIKR ... 57.3 nM
2. z4-XVT458 (antibody, human IgG1, kappa, V domains shown, hIgG1; numbering as for z1; also called GH + V067A + T071V) VH: QVQLVQSGAEVKKPGASVKVSCKASGYTFTNFYIHWVRQAPGQGLEWMGSIYPNYGDTAYNQKFKDRATMTVDTSTSTAYMELRSLRSDDTAVYYCARGYSYAMDYWGQGTTVTVSS VL: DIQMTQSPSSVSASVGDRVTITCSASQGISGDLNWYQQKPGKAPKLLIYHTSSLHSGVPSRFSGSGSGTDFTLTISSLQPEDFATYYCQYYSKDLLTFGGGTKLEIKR ... 51 nM
3. z1-XVT458 (antibody, human IgG1, kappa, V domains shown, hIgG1; also called GH + V067A) VH: QVQLVQSGAEVKKPGASVKVSCKASGYTFTNFYIHWVRQAPGQGLEWMGSIYPNYGDTAYNQKFKDRATMTTDTSTSTAYMELRSLRSDDTAVYYCARGYSYAMDYWGQGTTVTVSS VL: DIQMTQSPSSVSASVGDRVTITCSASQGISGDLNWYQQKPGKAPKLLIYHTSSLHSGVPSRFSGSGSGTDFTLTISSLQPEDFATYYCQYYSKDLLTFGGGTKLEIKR ... 57.3 nM
4. z3-XVT458 (antibody, human IgG1, kappa, V domains shown, hIgG1; numbering as for z1; also called GH + T073K) VH: QVQLVQSGAEVKKPGASVKVSCKASGYTFTNFYIHWVRQAPGQGLEWMGSIYPNYGDTAYNQKFKDRVTMTTDKSTSTAYMELRSLRSDDTAVYYCARGYSYAMDYWGQGTTVTVSS VL: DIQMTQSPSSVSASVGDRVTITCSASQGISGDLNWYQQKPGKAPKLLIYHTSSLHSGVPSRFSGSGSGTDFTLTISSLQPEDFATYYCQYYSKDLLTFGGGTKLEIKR ... 57.7 nM
5. z7-XVT458 (antibody, human IgG1, kappa, V domains shown, hIgG1; numbering as for z1; also called GH + V067A + T071V + T073K) VH: QVQLVQSGAEVKKPGASVKVSCKASGYTFTNFYIHWVRQAPGQGLEWMGSIYPNYGDTAYNQKFKDRATMTVDKSTSTAYMELRSLRSDDTAVYYCARGYSYAMDYWGQGTTVTVSS VL: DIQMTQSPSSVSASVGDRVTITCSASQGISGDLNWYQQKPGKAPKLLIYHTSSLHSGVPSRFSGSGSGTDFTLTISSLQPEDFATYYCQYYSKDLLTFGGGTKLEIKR ... 54.4 nM

Briefly, Kd measured for z2-XVT458 (antibody, IgG1, V domains shown, full hIgG1; also called XVT458-z2; GH + T071V) VH: QVQLVQSGAEVKKPGASVKVSCKASGYTFTNFYIHWVRQAPGQGLEWMGSIYPNYGDTAYNQKFKDRVTMTVDTSTSTAYMELRSLRSDDTAVYYCARGYSYAMDYWGQGTTVTVSS VL: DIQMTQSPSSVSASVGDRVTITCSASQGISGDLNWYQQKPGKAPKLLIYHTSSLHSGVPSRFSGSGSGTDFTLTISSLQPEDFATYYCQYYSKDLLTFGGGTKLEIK : 54.2 nM

Briefly, Kd measured for z0-XVT458 (antibody, human IgG1, kappa, V domains shown, hIgG1; also called GH + uVL) VH: QVQLVQSGAEVKKPGASVKVSCKASGYTFTNFYIHWVRQAPGQGLEWMGSIYPNYGDTAYNQKFKDRVTMTTDTSTSTAYMELRSLRSDDTAVYYCARGYSYAMDYWGQGTTVTVSS VL: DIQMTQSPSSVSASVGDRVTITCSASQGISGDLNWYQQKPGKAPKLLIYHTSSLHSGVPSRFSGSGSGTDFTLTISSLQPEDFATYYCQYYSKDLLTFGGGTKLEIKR : 56.7 nM

Briefly, Kd measured for z6-XVT458 (antibody, human IgG1, kappa, V domains shown, hIgG1; numbering as for z1; also called GH + T071V + T073K) VH: QVQLVQSGAEVKKPGASVKVSCKASGYTFTNFYIHWVRQAPGQGLEWMGSIYPNYGDTAYNQKFKDRVTMTVDKSTSTAYMELRSLRSDDTAVYYCARGYSYAMDYWGQGTTVTVSS VL: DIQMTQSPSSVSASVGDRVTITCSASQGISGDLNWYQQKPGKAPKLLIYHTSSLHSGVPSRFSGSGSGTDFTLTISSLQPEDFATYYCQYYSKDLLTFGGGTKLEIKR : 53.8 nM
